system name: T1, mouse NKp46 (mouse, UniProt Q8C567 17-325)
T1 construct: whole, on cells
T1 sequence (looked up): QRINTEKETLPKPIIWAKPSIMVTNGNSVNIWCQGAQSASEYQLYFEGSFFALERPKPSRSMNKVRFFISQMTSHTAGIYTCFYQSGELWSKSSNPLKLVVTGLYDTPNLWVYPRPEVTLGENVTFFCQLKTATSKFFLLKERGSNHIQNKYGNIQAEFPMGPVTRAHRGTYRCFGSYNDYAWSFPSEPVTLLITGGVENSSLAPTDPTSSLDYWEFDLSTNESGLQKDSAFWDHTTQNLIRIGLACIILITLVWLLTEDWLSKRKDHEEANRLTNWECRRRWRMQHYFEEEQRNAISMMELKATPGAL
protocol description: flow cytometry, HEK293F cells transfected with mouse NKp46
The binders listed here are annotated with their Bmax (MFI).
// return numeric value only (unit: MFI, not printed)

Consider the worked cases shown below.
binder	Bmax (MFI)
NKp46-hz5D7v7-Fc* (Fc fusion, VHH-Fc fusion with an IgG1 Fc lacking a hinge (Fc*); also called NKp46-bz5D7v7-Fc*) EVQLVESGGGEVQPGGSLRLSCAASGRTFASAAMGWFRQAPGKEREFVAAISRSGDTYYADSVKGRFTISRDNAKNTVYLQMSSLRAEDTAVYYCAAVVPTYGNNIYVHSAAYNYWGQGTLVTVKPGGGGPSVFLFPPKPKDTLMISRTPEVTCVVVDVSHEDPEVKFNWYVDGVEVHNAKTKPREEQYNSTYRVVSVLTVLHQDWLNGKEYKCKVSNKALPAPIEKTISKAKGQPREPQVYTLPPSRDELTKNQVSLTCLVKGFYPSDIAVEWESNGQPENNYKTTPPVLDSDGSFFLYSKLTVDKSRWQQGNVFSCSVMHEALHNHYTQKSLSLSPG	1.17e+06
NKp46-hz5D7v3-Fc* (Fc fusion, VHH-Fc fusion with an IgG1 Fc lacking a hinge (Fc*); also called NKp46-bz5D7v3-Fc*) EVQLVESGGGEVQPGGSLRLSCAASGRTFASAAMGWFRQAPGKEREFVAAISRSDDTYYAESVKGRFTISRDNAKNTVYLQMSSLRAEDTAVYYCAAVVPTYGNNIYVHSAAYNYWGQGTLVTVKPGGGGPSVFLFPPKPKDTLMISRTPEVTCVVVDVSHEDPEVKFNWYVDGVEVHNAKTKPREEQYNSTYRVVSVLTVLHQDWLNGKEYKCKVSNKALPAPIEKTISKAKGQPREPQVYTLPPSRDELTKNQVSLTCLVKGFYPSDIAVEWESNGQPENNYKTTPPVLDSDGSFFLYSKLTVDKSRWQQGNVFSCSVMHEALHNHYTQKSLSLSPG	1.17e+06
NKp46-hz5D7v9-Fc* (Fc fusion, VHH-Fc fusion with an IgG1 Fc lacking a hinge (Fc*)) EVQLVESGGGEVQPGGSLRLSCAASGRTFASAAMGWFRQAPGKEREFVAAISRSVDDTYYADSVKGRFTISRDNAKNTVYLQMSSLRAEDTAVYYCAAVVPTYGNNIYVHSAAYNYWGQGTLVTVKPGGGGPSVFLFPPKPKDTLMISRTPEVTCVVVDVSHEDPEVKFNWYVDGVEVHNAKTKPREEQYNSTYRVVSVLTVLHQDWLNGKEYKCKVSNKALPAPIEKTISKAKGQPREPQVYTLPPSRDELTKNQVSLTCLVKGFYPSDIAVEWESNGQPENNYKTTPPVLDSDGSFFLYSKLTVDKSRWQQGNVFSCSVMHEALHNHYTQKSLSLSPG	1.22e+06

-- ask Given the binder NKp46-hz5D7v2-Fc* (Fc fusion, VHH-Fc fusion with an IgG1 Fc lacking a hinge (Fc*); also called NKp46-bz5D7v2-Fc*) EVQLVESGGGEVQPGGSLRLSCAASGRTFASAAMGWFRQAPGKEREFVAAISRSDDTYYAESVKGRFTISRDNAKNTLYLQMSSLRAEDTAVYYCAAVVPTYGNNIYVHSAAYNYWGQGTLVTVKPGGGGPSVFLFPPKPKDTLMISRTPEVTCVVVDVSHEDPEVKFNWYVDGVEVHNAKTKPREEQYNSTYRVVSVLTVLHQDWLNGKEYKCKVSNKALPAPIEKTISKAKGQPREPQVYTLPPSRDELTKNQVSLTCLVKGFYPSDIAVEWESNGQPENNYKTTPPVLDSDGSFFLYSKLTVDKSRWQQGNVFSCSVMHEALHNHYTQKSLSLSPG , what is its reported Bmax (MFI)?
-- reply 1.21e+06

-- ask Please give the result for NKp46-hz5D7v8-Fc* (Fc fusion, VHH-Fc fusion with an IgG1 Fc lacking a hinge (Fc*); also called NKp46-bz5D7v8-Fc*) EVQLVESGGGEVQPGGSLRLSCAASGRTFASAAMGWFRQAPGKEREFVAAISRSVGDTYYADSVKGRFTISRDNAKNTVYLQMSSLRAEDTAVYYCAAVVPTYGNNIYVHSAAYNYWGQGTLVTVKPGGGGPSVFLFPPKPKDTLMISRTPEVTCVVVDVSHEDPEVKFNWYVDGVEVHNAKTKPREEQYNSTYRVVSVLTVLHQDWLNGKEYKCKVSNKALPAPIEKTISKAKGQPREPQVYTLPPSRDELTKNQVSLTCLVKGFYPSDIAVEWESNGQPENNYKTTPPVLDSDGSFFLYSKLTVDKSRWQQGNVFSCSVMHEALHNHYTQKSLSLSPG too.
-- reply 1.12e+06
